- test_name: Drug concentration in Sprague-Dawley rat at 10 mg/kg, po measured at 8 hrs by LC-MS/MS analysis
- Format: ADME, organism-based
- conditions: in vivo, read-out: Drug uptake
endpoint_name: concentration at 8 h (µM)
Provide the reading as a plain figure in µM.

# input Entry Cc1cc(-c2cnn(CCO)c2)c2c(c1)C(O)(C(F)(F)F)c1ccccc1-2 (stereo unspecified) : reported concentration at 8 h = ?
# output 3.1

----------
- test_name: Drug concentration in Sprague-Dawley rat at 10 mg/kg, po measured at 25 hrs by LC-MS/MS analysis
- Type: ADME, organism-based
- conditions: in vivo, read-out: Drug uptake
endpoint_name: concentration at 25 h (nM)
Provide the reading as a plain figure in nM.

# input Entry Cc1cc(-c2cnn(CCO)c2)c2c(c1)C(O)(C(F)(F)F)c1ccccc1-2 (stereo unspecified) : reported concentration at 25 h = ?
# output 200
